The measurements presented in this section are drawn from ChEMBL document CHEMBL4808235.

Method: Half life in rat at 1 mg/kg, po
Format: ADME, organism-based
Applied conditions: in vivo
Readout name: half-life (min)

(1) CCCCc1nc(=O)c(S(=O)(=O)c2ccc(C3CC3)cc2)c(O)n1-c1c(OC)cccc1OC
(2) CCOCc1nc(O)c(-c2nnc(Cc3ccc(Cl)cn3)o2)c(O)c1-c1c(OC)cccc1OC
(3) CCCCc1nc(=O)c(S(=O)(=O)c2ccc(-c3ccnc(NC(=O)C4CC4)c3)cc2)c(O)n1-c1c(OC)cccc1OC
Task: Kindly sort the 3 compounds above from the smallest to the largest half-life. Your answer should be the labels, listed in the requested order.
Result: 3, 2, 1
(3: 78 min, 2: 138 min, 1: 336 min)

---

Tested system: UniProt:Q9WV08
Sequence (Q9WV08 whole entry): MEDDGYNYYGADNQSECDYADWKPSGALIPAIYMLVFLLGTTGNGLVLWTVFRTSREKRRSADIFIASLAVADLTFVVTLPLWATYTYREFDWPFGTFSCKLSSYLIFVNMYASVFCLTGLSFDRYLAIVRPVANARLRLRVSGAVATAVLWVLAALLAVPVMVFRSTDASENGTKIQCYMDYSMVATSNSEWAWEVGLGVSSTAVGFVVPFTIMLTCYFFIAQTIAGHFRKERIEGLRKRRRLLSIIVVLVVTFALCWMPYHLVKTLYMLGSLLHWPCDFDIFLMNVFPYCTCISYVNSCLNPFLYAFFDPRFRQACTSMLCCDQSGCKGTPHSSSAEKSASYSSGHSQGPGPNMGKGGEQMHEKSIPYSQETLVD
Method: Agonist activity at mouse APJ receptor assessed as effect on cAMP accumulation by cAMP-Glo assay
pEC50: −log10 of the molar value.
Readout name: pEC50

Worked cases, pEC50 given:
CCCCc1nc(=O)c(S(=O)(=O)c2ccc(C3CC3)cc2)c(O)n1-c1c(OC)cccc1OC : 10.52
CCCCc1nc(=O)c(S(=O)(=O)c2ccc(-n3cc(Cl)ccc3=O)cc2)c(O)n1-c1c(OC)cccc1OC : 10.70

(I) CCCCc1[nH]c(=O)c(S(=O)(=O)c2ccc(-n3cc(Cl)ccc3=O)cc2)c(O)c1-c1c(OC)cccc1OC
(II) CCCCc1nc(=O)c(S(=O)(=O)c2ccc(-c3cccnc3OC)cc2)c(O)n1-c1c(OC)cccc1OC
Task: Field: lower pEC50 | Options: I / II I would appreciate it if you answered with the label of your choice.
Result: I

---

Method: Metabolic stability in human liver microsomes assessed as parent compound remaining incubated for 10 mins in presence of NADPH
Assay type: ADME, Microsome
Applied conditions: read-out: Stabilty
Readout name: remaining at 10 min (%)

CCCCc1nc(=O)c(S(=O)(=O)c2ccc(-n3cc(Cl)ccc3=O)cc2)c(O)n1-c1c(OC)cccc1OC : 94
CCCCc1nc(=O)c(S(=O)(=O)c2ccc(C)cc2)c(O)n1-c1c(OC)cccc1OC : 94
CCCCc1[nH]c(=O)c(S(=O)(=O)c2ccc(-n3ccccc3=O)cc2)c(O)c1-c1c(OC)cccc1OC : 100
CCCCc1[nH]c(=O)c(S(=O)(=O)c2ccc(-c3cccnc3OC)cc2)c(O)c1-c1c(OC)cccc1OC : 72
CCCCc1nc(=O)c(S(=O)(=O)c2ccccc2)c(O)n1-c1c(OC)cccc1OC : 89
CCCCc1nc(=O)c(S(=O)(=O)c2ccc(-c3ccc(F)nc3)cc2)c(O)n1-c1c(OC)cccc1OC : 100
COc1cccc(OC)c1-n1c(COC(C)C)nc(=O)c(S(=O)(=O)c2ccc(-c3ccc(F)nc3)cc2)c1O : 84
CCCCc1nc(=O)c(S(=O)(=O)c2ccc(-c3ccc(F)cc3)cc2)c(O)n1-c1c(OC)cccc1OC : 100
CCCCc1nc(=O)c(S(=O)(=O)c2ccc(-c3cccnc3)cc2)c(O)n1-c1c(OC)cccc1OC : 88

---

Method: Metabolic stability in mouse liver microsomes assessed as parent compound remaining incubated for 10 mins in presence of NADPH
Assay type: ADME, Microsome
Applied conditions: read-out: Stabilty
Readout name: remaining at 10 min (%)

CCCCc1nc(=O)c(S(=O)(=O)c2ccc(-c3cccnc3)cc2)c(O)n1-c1c(OC)cccc1OC : 57
CCCCc1nc(=O)c(S(=O)(=O)c2ccc(-c3ccnc(NC(=O)C4CC4)c3)cc2)c(O)n1-c1c(OC)cccc1OC : 72
CCCCc1[nH]c(=O)c(S(=O)(=O)c2ccc(-n3cc(Cl)ccc3=O)cc2)c(O)c1-c1c(OC)cccc1OC : 64
CCCCc1[nH]c(=O)c(S(=O)(=O)c2ccc(-c3cccnc3OC)cc2)c(O)c1-c1c(OC)cccc1OC : 24
COc1cccc(OC)c1-n1c(COC(C)C)nc(=O)c(S(=O)(=O)c2ccc(-c3ccc(F)nc3)cc2)c1O : 90

(I) CCCCc1nc(=O)c(S(=O)(=O)c2ccc(-c3ccc(F)nc3)cc2)c(O)n1-c1c(OC)cccc1OC
(II) CCCCc1nc(=O)c(S(=O)(=O)c2ccc(-c3ccc(F)cc3)cc2)c(O)n1-c1c(OC)cccc1OC
(III) CCCCc1nc(=O)c(S(=O)(=O)c2ccc(-n3cc(Cl)ccc3=O)cc2)c(O)n1-c1c(OC)cccc1OC
(IV) COc1cccc(OC)c1-n1c(CCC(C)C)nc(=O)c(S(=O)(=O)c2ccc(-c3ccc(F)nc3)cc2)c1O
Task: Place the items in sequence of falling remaining at 10 min. Respond with an ordered listing of the labels, as requested.
Result: III, I, II, IV
(III: 100%, I: 69%, II: 47%, IV: 31%)
